Where do these numbers come from? They come from paper PMC3759295.

- Tested on: CYP1A1 mRNA
- runDescription: CYP1A1 mRNA expression in primary human hepatocytes
- Type: cell-based
- measurementContext: male, human, primary human hepatocytes (culture LH46)
Quick reference for fold induction at 24 h, 10 µM among some compounds

Reference set, count: 2
compound="OC[C@H]1O[C@@H](Oc2cc3c(O)cc(O)cc3[o+]c2-c2ccc(O)c(O)c2)[C@H](O)[C@@H](O)[C@@H]1O [CYA-1, cyanidin-3-O-glucoside chloride]" measured=1.14
compound="OC[C@H]1O[C@@H](Oc2cc3c(O[C@@H]4O[C@H](CO)[C@@H](O)[C@H](O)[C@H]4O)cc(O)cc3[o+]c2-c2ccc(O)c(O)c2)[C@H](O)[C@@H](O)[C@@H]1O [CYA-3, cyanidin-3,5-di-O-glucoside chloride]" measured=2.21

In the following, a different compound is considered.
Exercise: Fill in the blank: the reported fold induction at 24 h, 10 µM of COc1cc(-c2[o+]c3cc(O)cc(O)c3cc2O[C@@H]2O[C@H](CO)[C@@H](O)[C@H](O)[C@H]2O)cc(OC)c1O [MAL-1, malvidin-3-O-glucoside chloride] is ____.
Solution: 2.34

----------
- Tested on: CYP1A1 mRNA in primary human hepatocytes
- runDescription: CYP1A1 mRNA expression in primary human hepatocytes
- Assay type: cell-based
- measurementContext: hepatocyte culture LH46, 10 µM, 24 h
Listed next: entries and their corresponding CYP1A1 mRNA fold induction over the vehicle-treated cells, LH46.
Field: numeric (fold). Do not append units.

molecule="C[C@@H]1O[C@@H](OC[C@H]2O[C@@H](Oc3cc4c(O)cc(O)cc4[o+]c3-c3cc(O)c(O)c(O)c3)[C@H](O)[C@@H](O)[C@@H]2O)[C@H](O)[C@H](O)[C@H]1O.[Cl-] [DEL-2, delphinidin-3-O-rutinoside chloride]" measured=1.34

Exercise: Quick check: CYP1A1 mRNA fold induction over the vehicle-treated cells, LH46 of COc1cc(-c2[o+]c3cc(O)cc(O)c3cc2O[C@@H]2O[C@H](CO)[C@H](O)[C@H](O)[C@H]2O)cc(OC)c1O.[Cl-] [MAL-3, malvidin-3-O-galactoside chloride] ?
Solution: 0.87

Exercise: Any idea what its CYP1A1 mRNA fold induction over the vehicle-treated cells, LH46 is? The molecule is COc1cc(-c2[o+]c3cc(O)cc(O[C@@H]4O[C@H](CO)[C@@H](O)[C@H](O)[C@H]4O)c3cc2O[C@@H]2O[C@H](CO)[C@@H](O)[C@H](O)[C@H]2O)cc(OC)c1O.[Cl-] [MAL-2, malvidin-3,5-di-O-glucoside chloride]
Solution: 1.72

Exercise: I am curious: what CYP1A1 mRNA fold induction over the vehicle-treated cells, LH46 value has been reported for OC[C@H]1O[C@@H](Oc2cc3c(O)cc(O)cc3[o+]c2-c2cc(O)c(O)c(O)c2)[C@H](O[C@@H]2OC[C@@H](O)[C@H](O)[C@H]2O)[C@@H](O)[C@@H]1O.[Cl-] [DEL-4, delphinidin-3-O-sambubioside chloride] ?
Solution: 1.11

----------
- Tested on: CYP1A1 mRNA in primary human hepatocytes
- runDescription: CYP1A1 mRNA expression in primary human hepatocytes
- Assay type: cell-based
- measurementContext: hepatocyte culture LH46, 50 µM, 24 h
// classify(record): look up CYP1A1 mRNA fold induction over the vehicle-treated cells, LH46 in ranges lowest = under 1 fold, middle = from 1 fold up to 2 fold, highest = 2 fold and over

Exercise: Class for COc1cc(-c2[o+]c3cc(O)cc(O[C@@H]4O[C@H](CO)[C@@H](O)[C@H](O)[C@H]4O)c3cc2O[C@@H]2O[C@H](CO)[C@@H](O)[C@H](O)[C@H]2O)cc(OC)c1O.[Cl-] [MAL-2, malvidin-3,5-di-O-glucoside chloride] ?
Solution: middle

----------
- Test system: CYP1A1 mRNA in primary human hepatocytes
- runDescription: CYP1A1 mRNA expression in primary human hepatocytes
- Assay type: cell-based
- measurementContext: hepatocyte culture LH48 (so in the source), 50 µM, 24 h
assayEndpoint: CYP1A1 mRNA fold induction over the vehicle-treated cells, LH48
In your response, the unit should come after the numeric value.

compound="OC[C@H]1O[C@@H](Oc2cc3c(O)cc(O)cc3[o+]c2-c2cc(O)c(O)c(O)c2)[C@H](O)[C@@H](O)[C@@H]1O.[Cl-] [DEL-1, delphinidin-3-O-glucoside chloride]" measured="0.01 ± 0.00 fold"
compound="OC[C@H]1O[C@@H](Oc2cc3c(O)cc(O)cc3[o+]c2-c2cc(O)c(O)c(O)c2)[C@H](O[C@@H]2OC[C@@H](O)[C@H](O)[C@H]2O)[C@@H](O)[C@@H]1O.[Cl-] [DEL-4, delphinidin-3-O-sambubioside chloride]" measured="0.07 ± 0.01 fold"
compound="COc1cc(-c2[o+]c3cc(O)cc(O[C@@H]4O[C@H](CO)[C@@H](O)[C@H](O)[C@H]4O)c3cc2O[C@@H]2O[C@H](CO)[C@@H](O)[C@H](O)[C@H]2O)cc(OC)c1O.[Cl-] [MAL-2, malvidin-3,5-di-O-glucoside chloride]" measured="0.93 ± 0.09 fold"
compound="COc1cc(-c2[o+]c3cc(O)cc(O)c3cc2O[C@@H]2O[C@H](CO)[C@H](O)[C@H](O)[C@H]2O)cc(OC)c1O.[Cl-] [MAL-3, malvidin-3-O-galactoside chloride]" measured="0.33 ± 0.02 fold"

Exercise: Given C[C@@H]1O[C@@H](OC[C@H]2O[C@@H](Oc3cc4c(O)cc(O)cc4[o+]c3-c3cc(O)c(O)c(O)c3)[C@H](O)[C@@H](O)[C@@H]2O)[C@H](O)[C@H](O)[C@H]1O.[Cl-] [DEL-2, delphinidin-3-O-rutinoside chloride] , state its recorded CYP1A1 mRNA fold induction over the vehicle-treated cells, LH48.
Solution: 0.02 ± 0.01 fold

Exercise: State the recorded CYP1A1 mRNA fold induction over the vehicle-treated cells, LH48 for this entry: COc1cc(-c2[o+]c3cc(O)cc(O)c3cc2O[C@@H]2O[C@H](CO)[C@@H](O)[C@H](O)[C@H]2O)ccc1O.[Cl-] [PEO-1, peonidin-3-O-glucoside chloride]
Solution: 0.08 ± 0.03 fold

Exercise: Give its CYP1A1 mRNA fold induction over the vehicle-treated cells, LH48 value. Item: OCC1OC(Oc2cc3c(OC4OC(CO)C(O)C(O)C4O)cc(O)cc3[o+]c2-c2cc(O)c(O)c(O)c2)C(O)C(O)C1O.[Cl-] (stereo not drawn) [DEL-3, delphinidin-3,5-di-O-glucoside chloride]
Solution: 0.02 ± 0.01 fold

Exercise: Field request: CYP1A1 mRNA fold induction over the vehicle-treated cells, LH48 | item: CC1OC(OCC2OC(Oc3cc4c(O)cc(O)cc4[o+]c3-c3ccc(O)cc3)C(O)C(O)C2O)C(O)C(O)C1O.[Cl-] (stereo not drawn) [PEL-2, pelargonidin-3-O-rutinoside chloride]
Solution: 0.60 ± 0.17 fold

Exercise: # CYP1A1 mRNA fold induction over the vehicle-treated cells, LH48 lookup, item C[C@@H]1O[C@@H](Oc2cc3c(O)cc(O)cc3[o+]c2-c2cc(O)c(O)c(O)c2)[C@H](O)[C@H](O)[C@H]1O.[Cl-] [DEL-5, delphinidin-3-O-rhamnoside chloride]
Solution: 0.01 ± 0.01 fold

----------
- System: CYP1A1 mRNA in primary human hepatocytes
- runDescription: CYP1A1 mRNA expression in primary human hepatocytes
- Type: cell-based
- measurementContext: 50 µM
assayEndpoint: CYP1A1 mRNA fold induction over the vehicle-treated cells, LH47 (fold)
Write it as a number; the unit fold goes unstated.

Exercise: Given the compound OC[C@H]1O[C@@H](O[C@H]2[C@@H](Oc3cc4c(O)cc(O)cc4[o+]c3-c3ccc(O)c(O)c3)O[C@H](CO)[C@@H](O)[C@@H]2O)[C@H](O)[C@@H](O)[C@@H]1O.[Cl-] [CYA-4, cyanidin-3-O-sophoroside chloride] , what is its reported CYP1A1 mRNA fold induction over the vehicle-treated cells, LH47?
Solution: 0.51

Exercise: Would you mind telling me what CYP1A1 mRNA fold induction over the vehicle-treated cells, LH47 value was observed for OC[C@H]1O[C@@H](Oc2cc3c(O)cc(O)cc3[o+]c2-c2ccc(O)c(O)c2)[C@H](O[C@@H]2OC[C@@H](O)[C@H](O)[C@H]2O)[C@@H](O)[C@@H]1O.[Cl-] [CYA-8, cyanidin-3-O-sambubioside chloride] ?
Solution: 2.44

Exercise: CYP1A1 mRNA fold induction over the vehicle-treated cells, LH47 for Oc1cc(O)c2cc(O[C@@H]3OC[C@H](O)[C@H](O)[C@H]3O)c(-c3ccc(O)c(O)c3)[o+]c2c1.[Cl-] [CYA-5, cyanidin-3-O-arabinoside chloride] ?
Solution: 0.34

Exercise: Item OC[C@H]1O[C@@H](Oc2cc3c(O)cc(O)cc3[o+]c2-c2ccc(O)c(O)c2)[C@H](O)[C@@H](O)[C@H]1O.[Cl-] [CYA-7, cyanidin-3-O-galactoside chloride] has what recorded CYP1A1 mRNA fold induction over the vehicle-treated cells, LH47?
Solution: 0.25

Exercise: # input compound: C[C@@H]1O[C@@H](Oc2cc3c(O)cc(O)cc3[o+]c2-c2ccc(O)c(O)c2)[C@H](O)[C@H](O)[C@H]1O.[Cl-] [CYA-6, cyanidin-3-O-rhamnoside chloride] ; wanted: its CYP1A1 mRNA fold induction over the vehicle-treated cells, LH47
Solution: 0.31

Exercise: Consider the compound OC[C@H]1O[C@@H](Oc2cc3c(O[C@@H]4O[C@H](CO)[C@@H](O)[C@H](O)[C@H]4O)cc(O)cc3[o+]c2-c2ccc(O)cc2)[C@H](O)[C@@H](O)[C@@H]1O [PEL-1, pelargonidin-3,5-di-O-glucoside chloride] and give its measured CYP1A1 mRNA fold induction over the vehicle-treated cells, LH47.
Solution: 0.59

Exercise: Query (compound): OC[C@H]1O[C@@H](Oc2cc3c(O)cc(O)cc3[o+]c2-c2ccc(O)c(O)c2)[C@H](O[C@@H]2OC[C@@H](O)[C@H](O)[C@H]2O)[C@@H](O)[C@H]1O.[Cl-] [CYA-9, cyanidin-3-O-lathyroside chloride] ; field requested: CYP1A1 mRNA fold induction over the vehicle-treated cells, LH47
Solution: 0.11

Exercise: What measured CYP1A1 mRNA fold induction over the vehicle-treated cells, LH47 goes with C[C@@H]1O[C@@H](OC[C@H]2O[C@@H](Oc3cc4c(O)cc(O)cc4[o+]c3-c3ccc(O)c(O)c3)[C@H](O)[C@@H](O)[C@@H]2O)[C@H](O)[C@H](O)[C@H]1O.[Cl-] [CYA-2, cyanidin-3-O-rutinoside chloride] ?
Solution: 0.57
